meta.source: patent US20170362228A1

subject of test: estrogen receptor alpha (ESR1) (Homo sapiens)
Construct: endogenous in cells; host or cells: MCF7 breast cancer cells
Sequence (P03372 whole entry): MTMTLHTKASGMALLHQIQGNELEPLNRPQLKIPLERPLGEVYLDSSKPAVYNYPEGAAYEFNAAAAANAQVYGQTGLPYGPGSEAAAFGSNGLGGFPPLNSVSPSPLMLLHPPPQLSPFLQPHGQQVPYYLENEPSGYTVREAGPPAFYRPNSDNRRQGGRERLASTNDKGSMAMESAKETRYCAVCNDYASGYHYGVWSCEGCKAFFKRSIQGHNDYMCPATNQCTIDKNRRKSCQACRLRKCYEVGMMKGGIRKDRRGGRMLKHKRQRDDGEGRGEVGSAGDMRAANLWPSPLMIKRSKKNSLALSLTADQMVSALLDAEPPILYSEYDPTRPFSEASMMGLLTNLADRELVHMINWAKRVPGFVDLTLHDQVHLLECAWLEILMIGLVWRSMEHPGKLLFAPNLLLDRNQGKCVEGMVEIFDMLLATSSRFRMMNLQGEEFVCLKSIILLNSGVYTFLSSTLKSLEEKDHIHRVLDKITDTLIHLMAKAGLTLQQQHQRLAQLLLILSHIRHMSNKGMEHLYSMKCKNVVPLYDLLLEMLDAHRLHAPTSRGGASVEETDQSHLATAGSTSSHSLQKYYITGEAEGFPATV
measurement description: Breast Cancer Cell ERa High Content Fluorescence Imaging Degradation Assay (Example 901)
Type: cell-based
condition summary: Table 1b; MCF7 breast cancer cells, 4 hours; plateau of the maximal effect
measurement name: ER-alpha MCF7 HCS (S inf) (%)

# compound, reading unit, ER-alpha MCF7 HCS (S inf)
data = [
    ("C[C@@H]1Cc2c([nH]c3ccccc23)[C@@H](c2c(F)cc([C@@H](O)C3CN(CCCF)C3)cc2F)N1CC(F)CF (stereo in doubt)", "%", "−101"),
    ("C[C@@H]1Cc2c([nH]c3ccccc23)[C@@H](c2c(F)cc([C@H](F)C3CN(CCCF)C3)cc2F)N1C[C@H](F)CO", "%", "−101"),
    ("COc1cc([C@@H]2c3[nH]c4ccccc4c3C[C@@H](C)N2CC(F)(F)CO)ccc1[C@@H](O)C1CN(CCCF)C1", "%", "−81"),
    ("CO[C@H](c1cc(F)c([C@@H]2c3[nH]c4ccccc4c3C[C@@H](C)N2CC(F)(F)CO)c(F)c1)C1CN(CCCF)C1", "%", "−94"),
    ("C[C@@H]1Cc2c([nH]c3ccccc23)[C@@H](c2ccc([C@@H](O)C3CN(CCCF)C3)c(F)c2)N1CC(F)(F)CO", "%", "−101"),
    ("C[C@@H]1Cc2c([nH]c3ccccc23)[C@@H](c2c(F)cc(CC3CN(CCCF)C3)cc2F)N1C[C@H](F)CO", "%", "−99"),
]

* * *

Tested on: MCF7 cells
measurement description: In vitro cell proliferation assays (Examples 902 and 903), MCF7
Assay type: cell-based
condition summary: Homo sapiens, MCF7, Table 1b, read-out: ER-alpha MCF7 HCS (EC50)
measurement name: EC50 (nM)

a: C[C@@H]1Cc2c([nH]c3ccccc23)[C@@H](c2c(F)cc([C@H](F)C3CN(CCCF)C3)cc2F)N1C[C@@H](F)CO (single isomer, unassigned) [Compound 156]
b: CO[C@H](c1cc(F)c([C@@H]2c3[nH]c4ccc(F)cc4c3C[C@@H](C)N2CC(F)(F)CO)c(F)c1)C1CN(CCCF)C1 [Compound 165]
Prompt line: Among a and b , which shows a numerically higher EC50 result? Respond with the label that goes with your answer.
Response line: b
(b: 0.17 nM, a: 0.055 nM)

A: C[C@@H]1Cc2c([nH]c3ccccc23)[C@@H](c2ccc([C@@H](O)C3CN(CCCF)C3)c(F)c2F)N1CC(F)(F)CO [Compound 174]
B: COc1cc([C@@H]2c3[nH]c4ccccc4c3C[C@@H](C)N2CC(F)(F)CO)ccc1[C@H](O)C1CN(CCCF)C1 [Compound 175]
Prompt line: Among A and B , which shows a numerically higher EC50 result? Respond with the label that goes with your answer.
Response line: B

a: C[C@@H]1Cc2c([nH]c3ccccc23)[C@@H](c2c(F)cc([C@@H](F)C3CN(CCCF)C3)cc2F)N1C[C@H](F)CO [Compound 159]
b: C[C@@H]1Cc2c([nH]c3ccccc23)[C@@H](c2c(F)cc([C@H](F)C3CN(CCCF)C3)cc2F)N1C[C@H](F)CO [Compound 158]
Prompt line: Among a and b , which shows a numerically higher EC50 result? Respond with the label that goes with your answer.
Response line: b

* * *

subject of test: estrogen receptor alpha (ESR1) (Homo sapiens)
Construct: endogenous in cells; host or cells: MCF7 breast cancer cells
measurement description: Breast Cancer Cell ERa High Content Fluorescence Imaging Degradation Assay (Example 901)
Assay type: cell-based
condition summary: Table 1a; MCF7 breast cancer cells, 4 hours; plateau of the maximal effect; DMSO and Fulvestrant define 0% and 100% changes in ESR1
measurement name: ER-alpha MCF7 HCS (S inf) (%)

# molecule, subject of test, reported value
data = [
    ("C[C@@H]1Cc2c([nH]c3ccc(F)cc23)[C@@H](c2c(F)cc([C@H](O)C3CN(CCCF)C3)cc2F)N1CC(F)(F)CO (single isomer, unassigned)", "estrogen receptor alpha (ESR1) (Homo sapiens)", "−100.60"),
    ("C[C@@H]1Cc2c([nH]c3ccccc23)[C@@H](c2c(F)cc([C@@H](O)C3CN(CCCF)C3)cc2F)N1CC(C)(C)F", "estrogen receptor alpha (ESR1) (Homo sapiens)", "−99.15"),
    ("C[C@H]1Cc2c([nH]c3c(F)cccc23)[C@H](c2c(F)cc([C@H](O)C3CN(CCCF)C3)cc2F)N1CC(F)(F)CO (single isomer, unassigned)", "estrogen receptor alpha (ESR1) (Homo sapiens)", "−95.59"),
    ("C[C@@H]1Cc2c([nH]c3ccc(F)cc23)[C@@H](c2c(F)cc(C(O)C3CN(CCCF)C3)cc2F)N1CC(C)(F)CO (some centres unmarked) [Compound 118]", "estrogen receptor alpha (ESR1) (Homo sapiens)", "−96.56"),
    ("C[C@@H]1Cc2c([nH]c3ccccc23)[C@@H](c2c(F)cc(C(O)C3CN(CCCF)C3)cc2F)N1CC(F)F (some centres unmarked)", "estrogen receptor alpha (ESR1) (Homo sapiens)", "−98.4"),
    ("C[C@@H]1Cc2c([nH]c3ccccc23)[C@@H](c2c(F)cc(C(O)C3CN(CCCF)C3)cc2F)N1C[C@@](C)(F)CO (some centres unmarked)", "estrogen receptor alpha (ESR1) (Homo sapiens)", "−94.23"),
    ("C[C@@H]1Cc2c([nH]c3cccc(F)c23)[C@@H](c2c(F)cc([C@H](O)C3CN(CCCF)C3)cc2F)N1CC(F)(F)CO", "estrogen receptor alpha (ESR1) (Homo sapiens)", "−101"),
    ("C[C@@H]1Cc2c([nH]c3ccccc23)[C@@H](c2c(F)cc([C@H](O)C3CN(CCCF)C3)cc2F)N1C[C@@H](F)CO (single isomer, unassigned)", "estrogen receptor alpha (ESR1) (Homo sapiens)", "−100.96"),
    ("C[C@@H]1Cc2c([nH]c3c(F)cccc23)[C@@H](c2c(F)cc([C@@H](O)C3CN(CCCF)C3)cc2F)N1CC(F)(F)CO (single isomer, unassigned)", "estrogen receptor alpha (ESR1) (Homo sapiens)", "−94.44"),
    ("C[C@@H]1Cc2c([nH]c3ccccc23)[C@@H](c2c(F)cc([C@H](O)C3CN(CCCF)C3)cc2F)N1CC(F)(F)F", "estrogen receptor alpha (ESR1) (Homo sapiens)", "−98.93"),
    ("C[C@@H]1Cc2c([nH]c3ccccc23)[C@@H](c2ccc([C@@H](F)C3CN(CCCF)C3)cc2F)N1CC(F)(F)CO", "estrogen receptor alpha (ESR1) (Homo sapiens)", "−95.71"),
    ("C[C@@H]1Cc2c([nH]c3cccc(F)c23)[C@@H](c2c(F)cc([C@@H](O)C3CN(CCCF)C3)cc2F)N1CC(F)(F)CO", "estrogen receptor alpha (ESR1) (Homo sapiens)", "−101"),
    ("C[C@@H]1Cc2c([nH]c3ccccc23)[C@@H](c2c(F)cc(C(N)C3CN(CCCF)C3)cc2F)N1CC(F)(F)CO (some centres unmarked)", "estrogen receptor alpha (ESR1) (Homo sapiens)", "−103"),
    ("C[C@@H]1Cc2c([nH]c3ccccc23)[C@@H](c2c(F)cc([C@H](F)C3CN(CCCF)C3)cc2F)N1CC(F)(F)CO (single isomer, unassigned)", "estrogen receptor alpha (ESR1) (Homo sapiens)", "−97.71"),
    ("C[C@@H]1Cc2c([nH]c3ccccc23)[C@@H](c2c(F)cc([C@@H](F)C3CN(CCCF)C3)cc2F)N1CC(F)(F)CO (single isomer, unassigned)", "estrogen receptor alpha (ESR1) (Homo sapiens)", "−99.99"),
    ("C[C@@H]1Cc2c([nH]c3ccccc23)[C@@H](c2ccc([C@H](O)C3CN(CCCF)C3)cc2F)N1CC(F)(F)CO", "estrogen receptor alpha (ESR1) (Homo sapiens)", "−98.76"),
    ("C[C@@H]1Cc2c([nH]c3ccccc23)[C@@H](c2ccc([C@@H](O)C3CN(CCCF)C3)cc2)N1CC(F)(F)CO", "estrogen receptor alpha (ESR1) (Homo sapiens)", "−97.31"),
    ("C[C@@H]1Cc2c([nH]c3ccccc23)[C@@H](c2c(F)cc([C@H](O)C3CN(CCCF)C3)cc2F)N1CC(F)F (single isomer, unassigned)", "estrogen receptor alpha (ESR1) (Homo sapiens)", "−98.21"),
    ("C[C@@H]1Cc2c([nH]c3ccccc23)[C@@H](c2ccc([C@H](O)C3CN(CCCF)C3)cc2)N1CC(F)(F)CO", "estrogen receptor alpha (ESR1) (Homo sapiens)", "−97.29"),
    ("C[C@@H]1Cc2c([nH]c3ccccc23)[C@@H](c2c(F)cc([C@@H](O)C3CN(CCCF)C3)cc2F)N1C[C@@H](F)CO (single isomer, unassigned)", "estrogen receptor alpha (ESR1) (Homo sapiens)", "−97.67"),
    ("C[C@@H]1Cc2c([nH]c3ccccc23)[C@@H](c2c(F)cc(C(O)C3CN(CCCF)C3)cc2F)N1CC(F)(F)CO (some centres unmarked)", "estrogen receptor alpha (ESR1) (Homo sapiens)", "−98.3"),
    ("C[C@@H]1Cc2c([nH]c3ccccc23)[C@@H](c2ccc(C(O)C3CN(CCCF)C3)cc2F)N1CC(F)(F)CO (some centres unmarked)", "estrogen receptor alpha (ESR1) (Homo sapiens)", "−98.7"),
    ("C[C@@H]1Cc2c([nH]c3cc(F)ccc23)[C@@H](c2c(F)cc([C@H](O)C3CN(CCCF)C3)cc2F)N1CC(F)(F)CO (single isomer, unassigned)", "estrogen receptor alpha (ESR1) (Homo sapiens)", "−100"),
]
